SYSTEM NAME: WD repeat-containing protein 5 (Homo sapiens, UniProt P61964)
EXPERIMENTAL DETAILS: Inhibition of N-terminal 6xHis-SUMO-tagged human WDR5 (22 to 334 residues) expressed in Escherichia coli BL21-Gold (DE3) cells assessed as inhibition constant incubated for 1 hr by TR-FRET assay
pKi: −log10 of the molar value.
REPORTED METRIC: pKi

Query: Would you kindly share the measured pKi for COc1cc(CN2CCc3c(cc(Cn4ccn(C)c4=N)cc3-c3ccc(F)cc3C)C2=O)cc(OC)c1 ?
Result: > 10.70

----------
Documented Ki across a set of compounds
SYSTEM NAME: WD repeat-containing protein 5 (Homo sapiens, UniProt P61964)
EXPERIMENTAL DETAILS: Competitive binding affinity to N-terminal 6xHis-SUMO-tagged human WDR5 (22 to 334 residues) expressed in Escherichia coli BL21-Gold (DE3) cells assessed as inhibition constant using 10-mer-Thr-FAM peptide as substrate incubated for 1 hr by Lantha Screen based TR-FRET assay

Examples with answers:
{"STRUCTURE": "COc1cc(CN2CCc3c(cc(Cn4cccn4)cc3-c3cn(C)nc3C(F)(F)F)C2=O)cc(OC)c1", "SYSTEM NAME": "WD repeat-containing protein 5 (Homo sapiens, UniProt P61964)", "Ki": "> 6700 pM"}
{"STRUCTURE": "Cc1cccc(CN2CCc3c(cc(Cn4ccnc4C)cc3-c3cn(C)nc3C(F)(F)F)C2=O)n1", "SYSTEM NAME": "WD repeat-containing protein 5 (Homo sapiens, UniProt P61964)", "Ki": "39 pM"}
{"STRUCTURE": "COc1cc(CN2CCc3c(cc(Cn4cnnc4)cc3-c3cn(C)nc3C(F)(F)F)C2=O)cc(OC)c1", "SYSTEM NAME": "WD repeat-containing protein 5 (Homo sapiens, UniProt P61964)", "Ki": "6500 pM"}
{"STRUCTURE": "COc1cc(CN2CCc3c(cc(Cn4cccc4)cc3-c3cn(C)nc3C(F)(F)F)C2=O)cc(OC)c1", "SYSTEM NAME": "WD repeat-containing protein 5 (Homo sapiens, UniProt P61964)", "Ki": "> 6700 pM"}
{"STRUCTURE": "COc1cc(CN2CCc3c(cc(Cn4ccn(C)c4=N)cc3-c3cn(C)nc3C(F)(F)F)C2=O)cc(OC)c1", "SYSTEM NAME": "WD repeat-containing protein 5 (Homo sapiens, UniProt P61964)", "Ki": "< 20 pM"}
{"STRUCTURE": "COc1cc(CN2CCc3c(cc(Cn4ccn(C)c4=N)cc3-c3cn(C)nc3C)C2=O)cc(OC)c1", "SYSTEM NAME": "WD repeat-containing protein 5 (Homo sapiens, UniProt P61964)", "Ki": "23 pM"}

Query: Would you kindly share the measured Ki for CCn1cc(-c2cc(Cn3ccnc3C)cc3c2CCN([C@H](c2cc(C)ccn2)C2CC2)C3=O)c(C(F)(F)F)n1 ?
Result: < 20 pM

Query: Would you kindly share the measured Ki for COc1cc(CN2CCc3c(cc(Cn4ccn(C)c4=N)cc3-c3ccncc3C)C2=O)cc(OC)c1 ?
Result: 29 pM

Query: Would you kindly share the measured Ki for CCn1cc(-c2cc(Cn3ccnc3C)cc3c2CCN([C@H](C)c2cc(OC)ccn2)C3=O)c(C(F)(F)F)n1 ?
Result: 29 pM

Query: Would you kindly share the measured Ki for CCn1cc(-c2cc(Cn3ccnc3)cc3c2CCN([C@H](c2cc(OC)ccn2)C2CC2)C3=O)c(C(F)(F)F)n1 ?
Result: < 20 pM

----------
EXPERIMENTAL DETAILS: Metabolic stability of compound in rat liver microsome assessed as half life at 1 uM measured upto 45 mins by LCMS analysis
Type: ADME, microsomes
EXPERIMENTAL PARAMETERS: liver microsomes
REPORTED METRIC: half-life at 1 µM (min)
The answer is to be given in min; state only the numeric part.

Query: Would you kindly share the measured half-life at 1 µM for CCn1cc(-c2cc(Cn3ccnc3C)cc3c2CCN([C@@H](C)c2cc(OC)ccn2)C3=O)c(C(F)(F)F)n1 (stereo in doubt; 38) ?
Result: 22

----------
SYSTEM NAME: WD repeat-containing protein 5 (Homo sapiens, UniProt P61964)
EXPERIMENTAL DETAILS: Competitive binding affinity to N-terminal 6xHis-SUMO-tagged human WDR5 (22 to 334 residues) expressed in Escherichia coli BL21-Gold (DE3) cells assessed as inhibition constant using 10-mer-Thr-FAM peptide as substrate incubated for 1 hr by Lantha Screen based TR-FRET assay
Documented pKi across a set of molecules
Here pKi is given on a logarithmic scale as minus log10 of the concentration in mol/L.

Examples with answers:
{"STRUCTURE": "COc1cc(CN2CCc3c(cc(Cn4ccn(C)c4=N)cc3-c3cccnc3C)C2=O)cc(OC)c1", "VALUE": 10.44}
{"STRUCTURE": "Cc1ccnc(CN2CCc3c(cc(Cn4ccnc4C)cc3-c3cn(C)nc3C(F)(F)F)C2=O)c1", "VALUE": 10.70}
{"STRUCTURE": "COc1cc(CN2CCc3c(cc(Cn4ccn(C)c4=N)cc3-c3cc(C)cnc3C)C2=O)cc(OC)c1", "VALUE": 10.66}
{"STRUCTURE": "COc1cc(CN2CCc3c(cc(Cn4ccn(C)c4=N)cc3-c3c(C)nn(C)c3C)C2=O)cc(OC)c1", "VALUE": 9.68}
{"STRUCTURE": "COc1cc(CN2CCc3c(cc(Cn4ccn(C)c4=N)cc3-c3cccnc3OC)C2=O)cc(OC)c1", "VALUE": 10.26}
{"STRUCTURE": "COc1cc(CN2CCc3c(cc(Cn4ccn(C)c4=N)cc3-c3conc3C)C2=O)cc(OC)c1", "VALUE": 10.34}

Query: Would you kindly share the measured pKi for Cc1nccn1Cc1cc2c(c(-c3cn(C)nc3C(F)(F)F)c1)CCN(Cc1ccccn1)C2=O ?
Result: 9.64

Query: Would you kindly share the measured pKi for COc1cc(CN2CCc3c(cc(Cn4ccn(C)c4=N)cc3-c3ccc(F)cc3OC)C2=O)cc(OC)c1 ?
Result: 10.48

Query: Would you kindly share the measured pKi for COc1cc(CN2CCc3c(cc(Cn4ccnc4C4CC4)cc3-c3cn(C)nc3C(F)(F)F)C2=O)cc(OC)c1 ?
Result: 10.55

----------
SYSTEM NAME: Histone-lysine N-methyltransferase 2A/WDR5 (Homo sapiens, UniProt P61964)
EXPERIMENTAL DETAILS: Inhibition of MLL1-WDR5 (unknown origin) interaction using 10mer-Thr-FAM as substrate by fluorescence polarization based competitive binding assay
REPORTED METRIC: pIC50
Here pIC50 is given on a logarithmic scale as minus log10 of the concentration in mol/L.

Query: Would you kindly share the measured pIC50 for CN1CCN(c2cc(F)c(-c3ccc(NC(=O)N(C)C)cc3)cc2Nc2ncnc(Cl)c2N)CC1 ?
Result: 7.54
